# assay: Inhibition of human GBA1
Please provide measured IC50 for the entries that follow.

Example results:
Query (compound): CCCCN[C@@H]1[C@H]2O[C@H](CO)[C@@H](O)[C@H](O)[C@@H]12 ; field requested: IC50 > 1000 µM

What about this compound? N[C@@H]1[C@H]2O[C@H](CO)[C@@H](O)[C@H](O)[C@@H]12 > 1000 µM

***
I am curious: what IC50 value has been reported for CCCC(=O)N[C@@H]1[C@H]2O[C@H](CO)[C@@H](O)[C@H](O)[C@@H]12 ? > 1000 µM
